# Tested on: Candida albicans
# assay.protocol: Antifungal activity against Candida albicans MTCC 227 after overnight incubation by broth microdilution method
# Format: functional
Here the recorded MIC99 is given for each entry.

compound: O=C(c1ccc(-c2cc3ccccc3oc2=O)nc1)c1cc(Cl)ccc1O
MIC99 (µg/mL): 500
--
compound: O=C(c1ccc(-c2cc3ccccc3oc2=O)nc1)c1ccccc1O
MIC99 (µg/mL): 500
--
compound: COC1=CC(=O)C[C@@H](C)[C@]12Oc1c(Cl)c(OC)cc(OC)c1C2=O [GRISEOFULVIN]
MIC99 (µg/mL): 500
